Target under test: M1 muscarinic receptor (Homo sapiens, UniProt P11229)
Construct: expressed in transfected cells; host or cells: CHO (M1-CHO)
Sequence (P11229 whole entry): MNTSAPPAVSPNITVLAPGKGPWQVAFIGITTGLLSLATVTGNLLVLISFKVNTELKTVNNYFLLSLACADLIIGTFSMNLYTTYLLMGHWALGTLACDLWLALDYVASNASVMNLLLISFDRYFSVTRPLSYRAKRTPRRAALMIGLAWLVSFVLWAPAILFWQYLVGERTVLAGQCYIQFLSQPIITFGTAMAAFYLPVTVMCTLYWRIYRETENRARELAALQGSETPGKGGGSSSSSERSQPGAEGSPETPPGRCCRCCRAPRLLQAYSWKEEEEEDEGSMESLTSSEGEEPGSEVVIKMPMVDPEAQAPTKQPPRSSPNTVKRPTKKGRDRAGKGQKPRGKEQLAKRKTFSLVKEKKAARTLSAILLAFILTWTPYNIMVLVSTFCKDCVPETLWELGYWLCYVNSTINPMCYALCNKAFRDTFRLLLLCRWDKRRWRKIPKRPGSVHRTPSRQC
Assay method text: Functional mobilization of intracellular calcium (FLIPR), M1-CHO cells
Type: cell-based
Applied conditions: 100% efficacy is the maximum response obtained using Carbachol as a control
Where a name gives a salt, the structure may show the parent alone.
Field: Emax. Provide a value for each of the molecules that follow.

CC(=O)N1Cc2ccccc2C2(CCN(Cc3ccccc3C#N)CC2)C1 [compound 322] : < 25%

Provide each entry's Emax from the list below.
1. CC(=O)N1Cc2ccccc2C2(CCN(Cc3ccncc3)CC2)C1 [compound 5]
2. CCOC(=O)N1CCC(CN2CCC3(CC2)CN(C(=O)OCC)Cc2ccccc23)CC1 [compound 11]
3. CC(=O)N1Cc2ccccc2C2(CCN(CC3CCC(C)=CC3C)CC2)C1 (centres unmarked) [compound 2]
4. CCCCNC(=O)N1Cc2ccccc2C2(CCN(C3CC4CCC(C3)N4C(=O)OCC)CC2)C1 (centres unmarked) [compound 61]
5. CCCOC(=O)N1Cc2ccccc2C2(CCN(C3CCN(C(=O)OCC)CC3)CC2)C1 [compound 254]
6. CSC(C)CCN1CCC2(CC1)NC(=O)c1ccccc12 (centres unmarked) [compound 323]
7. COC(=O)c1ccccc1CN1CCC2(CC1)CN(C(C)=O)Cc1ccccc12 [compound 118]
8. CC(=O)N1Cc2ccccc2C2(CCN(C3CCN(C(=O)O[C@H]4CCOC4)CC3)CC2)C1 [compound 302]

< 25%
25 to 100%
< 25%
25 to 100%
25 to 100%
< 25%
< 25%
25 to 100%

Provide each entry's Emax from the list below.
1. CCOC(=O)N1CCC(N2CCC3(CC2)c2ccccc2C(=O)N3Cc2ccccc2)CC1 [compound 20]
2. CN(C)S(=O)(=O)N1Cc2ccccc2C2(CCN(C3CC4CCC(C3)N4C(=O)O[C@@H]3CCOC3)CC2)C1 (some centres unmarked) [compound 3]
3. CCCCOC(=O)N1Cc2ccccc2C2(CCN(C3CCN(C(=O)OCC)CC3)CC2)C1 [compound 56]
4. CCOC(=O)N1CCC(N2CCC3(CC2)CN(C(=O)C(C)C)Cc2ccccc23)CC1 [compound 279]
5. CCOC(=O)N1CCC(N2CCC3(CC2)CN(C(=O)c2nc(C)oc2C)Cc2ccccc23)CC1 [compound 261]
6. O=C(OC1CCC1)N1Cc2ccccc2C2(CCN(C3CC4CCC(C3)N4C(=O)O[C@H]3CCOC3)CC2)C1 (some centres unmarked) [compound 95]
7. CCOC(=O)N1C2CCC1CC(N1CCC3(CC1)CN(C(=O)OC1CCC1)Cc1ccccc13)C2 (centres unmarked) [compound 27]
8. Cc1cc(C(=O)N2Cc3ccccc3C3(CCN(C4CC5CCC(C4)N5C(=O)O[C@@H]4CCOC4)CC3)C2)nn1C (some centres unmarked) [compound 210]

1: 25 to 100%; 2: 25 to 100%; 3: 25 to 100%; 4: 25 to 100%; 5: 25 to 100%; 6: 25 to 100%; 7: 25 to 100%; 8: 25 to 100%

Provide each entry's Emax from the list below.
1. CCOC(=O)N1CCC(N2CCC3(CC2)CN(C2CCCCC2C)Cc2ccccc23)CC1 (centres unmarked) [compound 123]
2. CCOC(=O)N1CCC(CN2CCC3(CC2)CN(C(=O)c2ccccc2)Cc2ccccc23)CC1 [compound 147, hydrochloride]
3. CCOC(=O)N1C2CCC1CC(N1CCC3(CC1)CN(C(=O)NC1CCCCC1)Cc1ccccc13)C2 (centres unmarked) [compound 358]
4. CC(=O)N1Cc2ccccc2C2(CCN(Cc3ccc(F)cc3)CC2)C1 [compound 115]
5. CC(=O)N1Cc2ccccc2C2(CCN(C3CCN(C(=O)O[C@@H]4CCOC4)CC3)CC2)C1 [compound 32]
6. CCOC(=O)N1CCC(N2CCC3(CC2)CN(C(=O)Oc2ccc(F)cc2)Cc2ccccc23)CC1 [compound 342]

["25 to 100%", "25 to 100%", "25 to 100%", "< 25%", "25 to 100%", "25 to 100%"]

Provide each entry's Emax from the list below.
1. CN(C)C(=O)N1Cc2ccccc2C2(CCN(C3CC4CCC(C3)N4C(=O)OC3CCC3)CC2)C1 (centres unmarked) [compound 327]
2. COCCOC(=O)N1CCC(CN2CCC3(CC2)CN(C(C)=O)Cc2ccccc23)CC1 [compound 207]
3. CC(=O)N1Cc2ccccc2C2(CCN(CC3CCN(C(=O)O[C@H]4CCOC4)CC3)CC2)C1 [compound 243]
4. CCOC(=O)N1CCC(N2CCC3(CC2)CN(C(=O)OCCOC)Cc2ccccc23)CC1 [compound 23]

1. 25 to 100%
2. 25 to 100%
3. < 25%
4. 25 to 100%

Provide each entry's Emax from the list below.
1. CCOC(=O)N1CCC(N2CCC3(CC2)CN(C(=O)CC(C)C)Cc2ccccc23)CC1 [compound 229]
2. COCCOC(=O)N1Cc2ccccc2C2(CCN(C3CC4CCC(C3)N4C(=O)OC(C)C)CC2)C1 (centres unmarked) [compound 157]

25 to 100%
25 to 100%

The reported numbers originate from patent US7863449B2.
